assayed target: FGFR3 (V555M) (Homo sapiens, UniProt P22607, V555M)
Construct: made in house; host or cells: E. coli derived from BL21, infected with T7 phage
Sequence (P22607 23-806 V555M): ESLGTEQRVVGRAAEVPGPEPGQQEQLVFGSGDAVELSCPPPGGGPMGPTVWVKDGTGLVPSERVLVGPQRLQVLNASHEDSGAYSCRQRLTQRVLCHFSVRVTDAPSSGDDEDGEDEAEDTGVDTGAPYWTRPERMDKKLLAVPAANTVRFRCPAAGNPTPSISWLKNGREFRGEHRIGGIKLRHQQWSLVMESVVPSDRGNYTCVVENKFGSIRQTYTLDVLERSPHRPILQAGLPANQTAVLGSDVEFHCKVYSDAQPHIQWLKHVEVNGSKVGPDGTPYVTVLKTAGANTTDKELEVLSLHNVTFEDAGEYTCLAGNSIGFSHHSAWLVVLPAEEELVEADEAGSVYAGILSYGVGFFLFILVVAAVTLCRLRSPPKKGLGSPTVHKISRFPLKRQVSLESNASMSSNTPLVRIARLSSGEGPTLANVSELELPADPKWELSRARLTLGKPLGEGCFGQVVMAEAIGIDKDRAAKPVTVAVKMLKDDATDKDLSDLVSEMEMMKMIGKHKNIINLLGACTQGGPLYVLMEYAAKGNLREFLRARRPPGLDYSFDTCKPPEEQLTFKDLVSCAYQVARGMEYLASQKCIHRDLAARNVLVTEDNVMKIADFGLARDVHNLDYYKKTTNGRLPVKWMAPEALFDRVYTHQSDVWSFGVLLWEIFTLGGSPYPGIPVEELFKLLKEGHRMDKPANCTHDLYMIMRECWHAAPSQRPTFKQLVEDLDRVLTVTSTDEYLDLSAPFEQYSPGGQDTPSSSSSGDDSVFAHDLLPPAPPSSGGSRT
run description: Kinase binding assay (kinase-tagged T7 phage, affinity beads, qPCR readout), FGFR3 (V555M)
assay conditions: FGFR binding data
Documented Kd across a set of compounds

• C#CC(=O)Nc1cnc2c(c1)c(C)cn2-c1nc(Nc2cnn(CCO)c2)ncc1F = 0.1 to 100 nM
• C=CC(=O)Nc1ccc2c(ccn2-c2nc(Nc3ccccc3OCC)ncc2Cl)c1 = > 1000 nM
• C=CC(=O)Nc1cc(C)c2c(c1)c(C)cn2-c1nc(Nc2cnn(C)c2)ncc1Cl [Example 71] = > 1000 nM
• C=CC(=O)Nc1ccc2c(c1)c(C)cn2-c1nc(Nc2cnn(C)c2)ncc1Cl = 0.1 to 100 nM
• C=CC(=O)Nc1ccc2c(ccn2-c2nc(Nc3ccccc3OCCN3CCOCC3)ncc2Cl)c1 = > 1000 nM
• CC#CC(=O)Nc1ccc2c(c1)c(C)cn2-c1nc(Nc2ccnn2C)ncc1C = 250 to 1000 nM
• C=CC(=O)Nc1ccc2c(c1)c(C)cn2-c1nc(Nc2ccc(OCCN3CCOCC3)cc2)ncc1C = 0.1 to 100 nM
• C=CC(=O)Nc1ccc2c(c1)c(C)cn2-c1nc(Nc2cccnc2C)ncc1F = 0.1 to 100 nM

Prompt: Determine from records and report Kd for `CC#CC(=O)Nc1cnc2c(c1)c(C)cn2-c1nc(Nc2ccnn2C)ncc1F`
Completion: > 1000 nM

Prompt: Give a short answer stating reported Kd for `C=CC(=O)Nc1ccc2c(-c3ccnc(Nc4cnn(C5CC5)c4)n3)cn(C)c2c1` .
Completion: 0.1 to 100 nM

Prompt: Please list Kd recorded for the compound `C=CC(=O)Nc1ccc2c(c1)c(C)cn2-c1nc(Nc2c(C)nn(C)c2C)ncc1Cl`
Completion: 0.1 to 100 nM

----------
assayed target: FGFR1 (Homo sapiens, UniProt P11362)
Construct: made in house; host or cells: E. coli derived from BL21, infected with T7 phage
Sequence (P11362 22-822): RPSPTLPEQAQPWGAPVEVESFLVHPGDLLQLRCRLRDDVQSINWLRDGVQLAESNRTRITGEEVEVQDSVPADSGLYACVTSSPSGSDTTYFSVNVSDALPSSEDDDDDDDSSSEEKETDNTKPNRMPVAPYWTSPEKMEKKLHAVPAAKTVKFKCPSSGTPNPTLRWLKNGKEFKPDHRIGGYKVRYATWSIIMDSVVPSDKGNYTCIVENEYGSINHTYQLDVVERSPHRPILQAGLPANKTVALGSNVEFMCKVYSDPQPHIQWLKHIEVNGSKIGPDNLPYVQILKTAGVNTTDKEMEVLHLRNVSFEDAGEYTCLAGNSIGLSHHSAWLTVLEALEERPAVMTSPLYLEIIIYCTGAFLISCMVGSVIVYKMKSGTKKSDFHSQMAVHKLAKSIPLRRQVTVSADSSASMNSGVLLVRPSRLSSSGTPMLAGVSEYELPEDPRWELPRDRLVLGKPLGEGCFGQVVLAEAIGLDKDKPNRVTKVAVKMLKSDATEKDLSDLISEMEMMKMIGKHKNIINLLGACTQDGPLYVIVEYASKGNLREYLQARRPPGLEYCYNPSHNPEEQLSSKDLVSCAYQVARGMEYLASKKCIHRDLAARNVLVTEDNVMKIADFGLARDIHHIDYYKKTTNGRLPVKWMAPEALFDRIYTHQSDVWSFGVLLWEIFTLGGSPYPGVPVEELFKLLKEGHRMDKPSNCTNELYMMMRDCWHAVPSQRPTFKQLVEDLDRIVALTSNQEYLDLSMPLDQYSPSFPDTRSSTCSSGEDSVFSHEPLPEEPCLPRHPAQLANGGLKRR
run description: Kinase binding assay (kinase-tagged T7 phage, affinity beads, qPCR readout), FGFR1
assay conditions: FGFR binding data
recorded metric: Kd

Prompt: Identify measured Kd corresponding to `CC#CC(=O)Nc1ccc2c(c1)c(C)cn2-c1nc(Nc2ccnn2C)ncc1F`
Completion: > 1000 nM

Prompt: Read off the recorded Kd for `C=CC(=O)Nc1ccc2c(c1)c(C)cn2-c1cc(Nc2cnn(C)c2)nnc1C`
Completion: > 1000 nM

Prompt: Tell us which Kd value is on record for `C=C(F)C(=O)Nc1cnc2c(c1)c(C)cn2-c1nc(Nc2ccn(C)n2)ncc1C`
Completion: > 1000 nM

Prompt: Give Kd for the following compound: `C=CC(=O)Nc1ccc2c(c1)c(C)cn2-c1nc(Nc2c(C)cccc2OCC)ncc1C#N`
Completion: > 1000 nM

Prompt: Provide measured Kd value, entry: `C=CC(=O)Nc1ccc2c(ccn2-c2nc(Nc3ccc(N4CCN(C)CC4)cc3)ncc2Cl)c1`
Completion: 0.1 to 100 nM

Prompt: Give the value of Kd reported for the following: `C=CC(=O)Nc1ccc2c(-c3ccnc(Nc4cnn(CC(F)(F)F)c4)n3)cn(C)c2c1`
Completion: 0.1 to 100 nM

Prompt: Return reported Kd. Input compound: `C=CC(=O)Nc1ccc2c(c1)c(C)cn2-c1nc(Nc2cnn(C3CCOCC3)c2)ncc1F`
Completion: 0.1 to 100 nM

Prompt: Read the entry `C#CC(=O)Nc1cnc2c(c1)c(C)cn2-c1nc(Nc2cnn(CCO)c2)ncc1F` and write its reported Kd.
Completion: 0.1 to 100 nM

----------
Listed here are compounds together with their documented Kd.
assayed target: FGFR3 (Homo sapiens)
Construct: made in house; host or cells: E. coli derived from BL21, infected with T7 phage
run description: Kinase binding assay (kinase-tagged T7 phage, affinity beads, qPCR readout), FGFR3
assay conditions: FGFR binding data

Prompt: Entry `C=CC(=O)Nc1ccc2c(-c3nc(Nc4cnn(CCO)c4)ncc3Cl)cn(C)c2c1` needs its Kd filled in; supply it.
Completion: 0.1 to 100 nM

Prompt: State, in one line, measured Kd of `C=CC(=O)Nc1ccc2c(c1)c(C)cn2-c1cc(Nc2cnn(C)c2)ncn1`
Completion: 100 to 250 nM

Prompt: For `C=CC(=O)Nc1ccc2c(ccn2-c2nc(Nc3ccc(N4CCN(C)CC4)cc3)ncc2Cl)c1` , write its Kd.
Completion: 0.1 to 100 nM

Prompt: // Input: `C=CC(=O)Nc1ccc2c(c1)c(C)cn2-c1nc(Nc2ccc(N3CCOCC3)cc2)ncc1Cl` . Output its Kd only.
Completion: 0.1 to 100 nM

Prompt: Name the recorded Kd of the compound listed here: `CC#CC(=O)Nc1ccc2c(c1)c(C)cn2-c1nc(Nc2ccnn2C)ncc1F`
Completion: > 1000 nM

----------
assayed target: FGFR3 (Homo sapiens)
Construct: made in house; host or cells: E. coli derived from BL21, infected with T7 phage
run description: Kinase binding assay (kinase-tagged T7 phage, affinity beads, qPCR readout), FGFR3
assay conditions: FGFR binding data
recorded metric: Kd

Solved cases (5 shown):
- C=CC(=O)Nc1ccc2c(c1)c(C)cn2-c1nc(Nc2ccc(CN3CCOCC3)cc2)ncc1Cl: 0.1 to 100 nM
- C=CC(=O)Nc1ccc2c(-c3ccnc(Nc4cnn(C5CCC5)c4)n3)cn(C)c2c1: 0.1 to 100 nM
- C=CC(=O)Nc1ccc2c(c1)c(C)cn2-c1nc(Nc2cnn(C[C@H](C)OC)c2)ncc1F: 0.1 to 100 nM
- C=CC(=O)Nc1ccc2c(-c3ccnc(Nc4cnn(CC)c4)n3)cn(C)c2c1: 0.1 to 100 nM
- C=C(F)C(=O)Nc1cnc2c(c1)c(C)cn2-c1nc(Nc2ccn(C)n2)ncc1C: > 1000 nM

Prompt: Look up Kd of `C=CC(=O)Nc1ccc2c(c1)c(C)cn2-c1nc(Nc2ccc(N3CCOCC3)cc2)ncc1C` and report it.
Completion: 0.1 to 100 nM

Prompt: Kindly indicate its recorded Kd. Item: `C=CC(=O)Nc1ccc2c(-c3ccnc(Nc4cnn(CCO)c4)n3)cn(C)c2c1`
Completion: 0.1 to 100 nM

Prompt: Fill in reported Kd for this entry: `C=CC(=O)Nc1ccc2c(ccn2-c2nc(Nc3ccccc3OCC)ncc2Cl)c1`
Completion: > 1000 nM

Prompt: Supply Kd value. Item: `C=CC(=O)Nc1ccc2c(c1)c(C)cn2-c1nc(Nc2ccc(CN3CCOCC3)c(C)c2)ncc1Cl`
Completion: 0.1 to 100 nM

Prompt: Report Kd for `C=C(F)C(=O)Nc1ccc2c(c1)c(C)cn2-c1nc(Nc2ccnn2C)ncc1C`
Completion: > 1000 nM

Prompt: Give Kd for the following compound: `C=CC(=O)Nc1ccc2c(c1)c(C)cn2-c1nc(Nc2ccc(N3CCOCC3)cc2)ncc1C#N`
Completion: 0.1 to 100 nM

Prompt: Please supply the value of reported Kd for the item `CC#CC(=O)Nc1ccc2c(-c3nc(Nc4cnn(CCO)c4)ncc3Cl)cn(C)c2c1`
Completion: 100 to 250 nM

----------
assayed target: FGFR3 (Homo sapiens, UniProt P22607)
Construct: made in house; host or cells: E. coli derived from BL21, infected with T7 phage
Sequence (P22607 23-806): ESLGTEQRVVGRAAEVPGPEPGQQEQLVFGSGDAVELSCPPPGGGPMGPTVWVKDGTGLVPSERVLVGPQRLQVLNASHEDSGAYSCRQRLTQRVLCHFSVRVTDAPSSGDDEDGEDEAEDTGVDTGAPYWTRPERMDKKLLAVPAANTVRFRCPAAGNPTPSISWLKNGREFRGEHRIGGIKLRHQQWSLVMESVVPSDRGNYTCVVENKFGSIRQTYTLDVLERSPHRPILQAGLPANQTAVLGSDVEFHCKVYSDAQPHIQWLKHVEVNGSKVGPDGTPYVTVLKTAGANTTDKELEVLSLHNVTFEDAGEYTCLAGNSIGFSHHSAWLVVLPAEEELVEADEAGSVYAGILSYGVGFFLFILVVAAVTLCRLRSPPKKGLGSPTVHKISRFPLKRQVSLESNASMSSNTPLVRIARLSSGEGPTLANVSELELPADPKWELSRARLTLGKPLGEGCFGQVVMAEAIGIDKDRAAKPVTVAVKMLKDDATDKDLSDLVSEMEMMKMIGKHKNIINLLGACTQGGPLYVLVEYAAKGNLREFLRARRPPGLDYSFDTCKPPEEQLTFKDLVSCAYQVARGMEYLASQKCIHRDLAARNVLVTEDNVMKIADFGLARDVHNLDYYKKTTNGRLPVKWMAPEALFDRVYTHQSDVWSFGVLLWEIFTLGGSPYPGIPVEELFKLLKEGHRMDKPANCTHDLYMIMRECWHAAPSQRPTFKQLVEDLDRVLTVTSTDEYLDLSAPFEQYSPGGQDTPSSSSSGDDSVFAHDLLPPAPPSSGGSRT
run description: Kinase binding assay (kinase-tagged T7 phage, affinity beads, qPCR readout), FGFR3
assay conditions: FGFR binding data
recorded metric: Kd

Study these solved cases before continuing.
* C=CC(=O)Nc1ccc2c(c1)c(C)cn2-c1nc(Nc2c(C)cccc2OCC)ncc1C#N [Example 33] | > 1000 nM
* C=CC(=O)Nc1ccc2c(c1)c(C)cn2-c1nc(Nc2cn(C)cn2)ncc1C [Example 36] | 0.1 to 100 nM
* C=CC(=O)Nc1ccc2c(c1)c(C)cn2-c1nc(Nc2cccc(N3CCN(CCO)CC3)c2)ncc1Cl [Example 88] | 0.1 to 100 nM
* C=CC(=O)Nc1ccc2c(c1)c(C)cn2-c1nc(Nc2cnn(CCO)c2C)ncc1F [Example 192] | 0.1 to 100 nM
* C#CC(=O)Nc1cnc2c(c1)c(C)cn2-c1nc(Nc2cnn(CCO)c2)ncc1C [Example 141] | 0.1 to 100 nM
* CCn1ccc(Nc2ncc(C)c(-n3cc(C)c4cc(NC(=O)/C=C/CN(C)C)cnc43)n2)n1 [Example 115] | 0.1 to 100 nM
* C=CC(=O)Nc1cnc2c(c1)c(C)cn2-c1nc(Nc2ccnn2C)ncc1F [Example 80] | 0.1 to 100 nM
* C=CC(=O)Nc1ccc2c(c1)c(C)cn2-c1nc(Nc2cnn(C3CCOCC3)c2)ncc1F [Example 208] | 0.1 to 100 nM

Field: next compound
Prompt: Item CC#CC(=O)Nc1ccc2c(c1)c(C)cn2-c1nc(Nc2ccnn2C)ncc1C [Example 130] : provide Kd
Completion: > 1000 nM

----------
Kd by entry:
assayed target: FGFR1 (Homo sapiens, UniProt P11362)
Construct: made in house; host or cells: E. coli derived from BL21, infected with T7 phage
run description: Kinase binding assay (kinase-tagged T7 phage, affinity beads, qPCR readout), FGFR1
assay conditions: FGFR binding data

Known Kd results, listed for orientation:
• C=CC(=O)Nc1ccc2c(c1)c(C)cn2-c1nc(Nc2cc(C)sn2)ncc1F = 0.1 to 100 nM
• C=CC(=O)Nc1ccc2c(c1)c(C)cn2-c1nc(Nc2cc(C)[nH]n2)ncc1C = 0.1 to 100 nM
• C=CC(=O)Nc1ccc2c(ccn2-c2nc(Nc3ccc(N4CCOCC4)c(F)c3)ncc2Cl)c1C = 250 to 1000 nM

Prompt: Param request: Kd | system FGFR1 (Homo sapiens, UniProt P11362) | item `C=CC(=O)Nc1ccc2c(-c3nc(Nc4cn(CC(F)F)nc4C)ncc3F)cn(C)c2c1`
Completion: 250 to 1000 nM

Prompt: Identify measured Kd obtained with FGFR1 (Homo sapiens, UniProt P11362) for `C=C(Cl)C(=O)Nc1cnc2c(c1)c(C)cn2-c1nc(Nc2ccn(C)n2)ncc1C` .
Completion: 100 to 250 nM

Prompt: Quote Kd with test system FGFR1 (Homo sapiens, UniProt P11362) for `C=CC(=O)Nc1ccc2c(c1)c(C)cn2-c1nc(Nc2ccc(N3CCOCC3)cc2)ncc1Cl`
Completion: 0.1 to 100 nM

Prompt: State measured Kd of the molecule `C=CC(=O)Nc1ccc2c(c1)c(C)cn2-c1nc(Nc2cccc(N3CCN(CCO)CC3)c2)ncc1Cl` with FGFR1 (Homo sapiens, UniProt P11362).
Completion: 0.1 to 100 nM

Prompt: Check FGFR1 (Homo sapiens, UniProt P11362) data and give Kd for `C=CC(=O)Nc1ccc2c(-c3ccnc(Nc4cnn(C(C)C)c4)n3)cn(C)c2c1` .
Completion: 0.1 to 100 nM

Prompt: Look up FGFR1 (Homo sapiens, UniProt P11362) data: Kd of `C=CC(=O)Nc1cnc2c(c1)c(C)cn2-c1nc(Nc2ccnn2C)ncc1F` , then report it.
Completion: 0.1 to 100 nM

All values here come from patent US20240190849A1.
